System: SW-620 colorectal cancer cell line
experiment.notes: MTT cell viability assay, SW-620 colorectal cancer cells
Type: cell-based, human
test.settings: Homo sapiens, SW-620, 72 h, MTT, 5FU 72 h; read-out: IC50 against SW-620
observation.type: IC50 (µM)

• O=c1[nH]cc(F)c(=O)[nH]1 [Compound 5-FU, 5-Fluorouracil, reference compound] = 4.6

---

Property: melting point; scope: individual compounds
observation.type: melting point

- O=C1Nc2ccccc2C1=NNC(=O)c1c[nH]c2ccccc12 [Compound 7a]: 259 to 261 °C
- CCCN1C(=O)C(=NNC(=O)c2c[nH]c3ccccc23)c2cc(Br)ccc21 [Compound 9e]: 255 to 256 °C
- CCCN1C(=O)C(=NNC(=O)c2c[nH]c3ccccc23)c2ccccc21 [Compound 9b]: 248 to 250 °C
- O=C(NN=C1C(=O)N(Cc2ccccc2)c2ccccc21)c1c[nH]c2ccccc12 [Compound 9c]: 274 to 276 °C
- COc1ccc2c(c1)C(=NNC(=O)c1c[nH]c3ccccc13)C(=O)N2 [Compound 7f]: 197 to 199 °C
- O=C1Nc2ccc(F)cc2C1=NNC(=O)c1c[nH]c2ccccc12 [Compound 7b]: > 300 °C
- CCCN1C(=O)C(=NNC(=O)c2c[nH]c3ccccc23)c2cc(Cl)ccc21 [Compound 9d]: 262 to 263 °C
- Cc1cc(C)c2c(c1)C(=NNC(=O)c1c[nH]c3ccccc13)C(=O)N2 [Compound 7j]: > 300 °C
- CN1C(=O)C(=NNC(=O)c2c[nH]c3ccccc23)c2ccccc21 [Compound 9a]: 273 to 275 °C
- O=C1Nc2c(F)cccc2C1=NNC(=O)c1c[nH]c2ccccc12 [Compound 7i]: > 300 °C
- O=C1Nc2ccc([N+](=O)[O-])cc2C1=NNC(=O)c1c[nH]c2ccccc12 [Compound 7h]: > 300 °C
- Cc1ccc2c(c1)C(=NNC(=O)c1c[nH]c3ccccc13)C(=O)N2 [Compound 7e]: 201 to 203 °C
- O=C1Nc2ccc(Br)cc2C1=NNC(=O)c1c[nH]c2ccccc12 [Compound 7d]: 247 to 249 °C
